Reported MIC Coagulase Negative Staphylococcus (GC 4551) values follow for various compounds
- System: Staphylococcus sp.
- method notes: In vitro antibacterial evaluation: minimum inhibitory concentration (MIC), broth dilution method
- Type: cell-based
- condition parameters: Coagulase Negative Staphylococcus (GC 4551); 18 hours at 35° C.
Numbered stars: 1 amine (or outer) side, 2 acyl side, 3 side chain; on linkers, the order of the positions; unused ones are H or OH. Square brackets hold non-standard residues; d marks the D form. Peptide text beside a SMILES is read from it. ξ: configuration not given here. X3 = CC1(C)OCC2OC(N3C(=N)NCC3C(O)C(N[*:1])C(=O)[*:2])C3OC(C)(C)OC3C2O1; ξEnduracididine(βξ-OH,4'ξ) = N=C1NCC(C(O)C(N)C(=O)O)N1; ξPhe(βξ-Me) = CC(c1ccccc1)C(N)C(=O)O
endpoint: MIC Coagulase Negative Staphylococcus (GC 4551)

- CC(c1ccccc1)C1NC(=O)CNC(=O)C(CO)NC(=O)C(C(O)C2CNC(=N)N2C2OC(CO)C(O)C(O)C2O)NC(=O)C(C(O)C2CNC(=N)N2)NC(=O)C(Cc2ccc(OC3OC(CO)C(OC4OC(CO)C(OCC=Cc5ccc(N(C)C)cc5)C(O)C4O)C(O)C3O)cc2)NC1=O (stereo not shown) [Example 243a]: 32 µg/mL
- CC(c1ccccc1)C1NC(=O)CNC(=O)C(CO)NC(=O)C(C(O)C2CNC(=N)N2C2OC3COC(C)(C)OC3C3OC(C)(C)OC32)NC(=O)C(C(O)C2CNC(=N)N2)NC(=O)C(Cc2ccc(O)cc2)NC1=O (stereo not drawn) [Example 247] (cyclo(G[ξPhe(βξ-Me)]Y[ξEnduracididine(βξ-OH,4'ξ)][X3]S); configuration not given here): >64 µg/mL
- CC(c1ccccc1)C1NC(=O)CNC(=O)C(CO)NC(=O)C(C(O)C2CNC(=N)N2C2OC(CO)C(O)C(O)C2O)NC(=O)C(C(O)C2CNC(=N)N2)NC(=O)C(Cc2ccc(OC3OC(CO)C(OC4OC(COCc5ccc(Oc6ccccc6)cc5)C(O)C(O)C4O)C(O)C3O)cc2)NC1=O (stereo not shown) [Example 236]: 2 µg/mL
- CC(c1ccc(F)cc1)C1NC(=O)CNC(=O)C(CO)NC(=O)C(C(O)C2CNC(=N)N2C2OC(CO)C(O)C(O)C2O)NC(=O)C(C(O)C2CNC(=N)N2)NC(=O)C(Cc2ccc(OC3OC(CO)C(OC4OC(CO)C(O)C(O)C4O)C(O)C3O)cc2)NC1=O (stereo not shown) [Example 261a]: >64 µg/mL

* * *

- Test system: Enterococcus faecalis (GC 6189), vancomycin resistant strain
- method notes: Acute lethal infection in mice (ED50)
- Format: in vivo
- condition parameters: female CD-1 mice, intraperitoneal challenge, intravenous dose 30 min. after infection, 7 day survival ratios
Listed here: items and their measured median effective dose (ED50), Enterococcus faecalis (GC 6189).
endpoint: median effective dose (ED50), Enterococcus faecalis (GC 6189) (mg/kg)

- CCCC(C)C1OCC2OC(OC3C(CO)OC(Oc4ccc(CC5NC(=O)C(C(C)c6ccccc6)NC(=O)CNC(=O)C(CO)NC(=O)C(C(O)C6CNC(=N)N6C6OC(CO)C(O)C(O)C6O)NC(=O)C(C(O)C6CNC(=N)N6)NC5=O)cc4)C(O)C3O)C(O)C(O)C2O1 (stereo not drawn): 0.28
- CC(c1ccccc1)C1NC(=O)CNC(=O)C(CO)NC(=O)C(C(O)C2CNC(=N)N2C2OC(CO)C(O)C(O)C2O)NC(=O)C(C(O)C2CNC(=N)N2)NC(=O)C(Cc2ccc(OC3OC(CO)C(OC4OC5COC(Cc6ccccc6)OC5C(O)C4O)C(O)C3O)cc2)NC1=O (stereo not drawn): 1.04

* * *

- Test system: Escherichia coli
- method notes: In vitro antibacterial evaluation: minimum inhibitory concentration (MIC), broth dilution method
- Type: cell-based
- condition parameters: strain GC 4560
endpoint: MIC Escherichi coli (GC 4560) (µg/mL)

• CC(c1ccccc1)C1NC(=O)CNC(=O)C(CO)NC(=O)C(C(O)C2CNC(=N)N2C2OC(CO)C(O)C(O)C2O)NC(=O)C(C(O)C2CNC(=N)N2)NC(=O)C(Cc2ccc(OC3OC(CO)C(OC4OC5COC(c6ccc(-c7cccs7)cc6)OC5C(O)C4O)C(O)C3O)cc2)NC1=O (centres unmarked) = 8

* * *

compounds and their reported MIC Streptococcus agalactiae (GC 4564)
- System: Streptococcus sp.
- method notes: In vitro antibacterial evaluation: minimum inhibitory concentration (MIC), broth dilution method
- Assay type: cell-based
- condition parameters: broth dilution, inoculum 5×10^5 CFU/mL, 18 hours at 35° C.
endpoint: MIC Streptococcus agalactiae (GC 4564) (µg/mL)

- CC(C)=CCN1CC(C(O)C2NC(=O)C(C(O)C3CNC(=N)N3)NC(=O)C(Cc3ccc(OC4OC(CO)C(OC5OC6COC7(OC6C(O)C5O)C5CC6CC(C5)CC7C6)C(O)C4O)cc3)NC(=O)C(C(C)c3ccccc3)NC(=O)CNC(=O)C(CO)NC2=O)N(C2OC(CO)C(O)C(O)C2O)C1=N (stereo not drawn) [Example 225]: 0.5
- CCOc1cc(COCC2OC(OC3C(CO)OC(Oc4ccc(CC5NC(=O)C(C(C)c6ccccc6)NC(=O)CNC(=O)C(CO)NC(=O)C(C(O)C6CNC(=N)N6C6OC(CO)C(O)C(O)C6O)NC(=O)C(C(O)C6CNC(=N)N6)NC5=O)cc4)C(O)C3O)C(O)C(O)C2O)ccc1OC (stereo not drawn) [Example 238]: 2
- CC(c1ccccc1)C1NC(=O)CNC(=O)C(CO)NC(=O)C(C(O)C2CNC(=N)N2C2OC(CO)C(O)C(O)C2O)NC(=O)C(C(O)C2CNC(=N)N2)NC(=O)C(Cc2ccc(OC3OC(CO)C(OC4OC5COC6(CCCCCCCCCCCC6)OC5C(O)C4O)C(O)C3O)cc2)NC1=O (stereo not drawn) [Example 210]: 0.25
- CC(c1ccccc1)C1NC(=O)CNC(=O)C(CO)NC(=O)C(C(O)C2CNC(=N)N2C2OC(CO)C(O)C(O)C2O)NC(=O)C(C(O)C2CNC(=N)N2)NC(=O)C(Cc2ccc(OC3OC(CO)C(OC4OC(COCc5cccs5)C(O)C(O)C4O)C(O)C3O)cc2)NC1=O (stereo not drawn) [Example 244]: 4
- CC(c1ccccc1)C1NC(=O)CNC(=O)C(CO)NC(=O)C(C(O)C2CNC(=N)N2C2OC(CO)C(O)C(O)C2O)NC(=O)C(C(O)C2CNC(=N)N2)NC(=O)C(Cc2ccc(OC3OC(CO)C(OC4OC(COCC=Cc5ccccc5)C(O)C(O)C4O)C(O)C3O)cc2)NC1=O (stereo not drawn) [Example 242]: 2

* * *

- System: Staphylococcus sp.
- method notes: In vitro antibacterial evaluation: minimum inhibitory concentration (MIC), broth dilution method
- Format: cell-based
- condition parameters: Staphylococcus haemolyticus (GC 4546); broth dilution, 18 hours at 35° C.
Numbered stars: 1 amine (or outer) side, 2 acyl side, 3 side chain; on linkers, the order of the positions; unused ones are H or OH. Square brackets hold non-standard residues; d marks the D form. Peptide text beside a SMILES is read from it. * marks the point of attachment. ξ: configuration not given here. X1 = N=C1NCC(C(O)C(N[*:1])C(=O)[*:2])N1C1OC(CO)C(O)C(O)C1O; ξEnduracididine(βξ-OH,4'ξ) = N=C1NCC(C(O)C(N)C(=O)O)N1; X2 = OCC1OC(OC2C(CO)OC(*)C(O)C2O)C(O)C(O)C1O; Cha = N[CH](CC1CCCCC1)C(=O)O
endpoint: MIC Staphylococcus haemolyticus (GC 4546) (µg/mL)

* CC(C)CC(=O)OC1C(O)C(CO)OC(OC2C(CO)OC(Oc3ccc(CC4NC(=O)C(C(C)c5cccs5)NC(=O)CNC(=O)C(CO)NC(=O)C(C(O)C5CNC(=N)N5C5OC(CO)C(O)C(O)C5O)NC(=O)C(C(O)C5CNC(=N)N5)NC4=O)cc3)C(O)C2O)C1O (centres unmarked) [Example 265b] | 8
* N=C1NCC(C(O)C2NC(=O)C(Cc3ccc(OC4OC(CO)C(OC5OC(CO)C(O)C(O)C5O)C(O)C4O)cc3)NC(=O)C(CC3CCCCC3)NC(=O)CNC(=O)C(CO)NC(=O)C(C(O)C3CNC(=N)N3C3OC(CO)C(O)C(O)C3O)NC2=O)N1 (stereo not drawn) [Example 263] (cyclo(G[Cha]Y(X2)[ξEnduracididine(βξ-OH,4'ξ)][X1]S); configuration not given here) | 32
* CC=C(C)C(=O)OC1C(CO)OC(OC2C(CO)OC(Oc3ccc(CC4NC(=O)C(C(C)c5ccccc5)NC(=O)CNC(=O)C(CO)NC(=O)C(C(O)C5CNC(=N)N5C5OC(CO)C(O)C(O)C5O)NC(=O)C(C(O)C5CNC(=N)N5)NC4=O)cc3)C(O)C2O)C(O)C1O (centres unmarked) [Example 278b] | 4
* CC(C)CC(=O)OC1C(O)C(CO)OC(OC2C(CO)OC(Oc3ccc(CC4NC(=O)C(C(C)c5ccc(Cl)cc5)NC(=O)CNC(=O)C(CO)NC(=O)C(C(O)C5CNC(=N)N5C5OC(CO)C(O)C(O)C5O)NC(=O)C(C(O)C5CNC(=N)N5)NC4=O)cc3)C(O)C2O)C1O (centres unmarked) [Example 262b] | 2
